Test system: Echinochloa crus-galli (ECHCG)
Assay: Post-emergence herbicidal glasshouse test
Assay type: in vivo
Settings: 250 g/ha, evaluated after 13 days
PROPERTY: percentage damage caused to the plant (five-point scale), ECHCG

COMPOUND	OBSERVED
FC(F)(F)c1cc(Cc2ncc(Cl)cn2)n(C2CCCC2)n1 [Compound 1.028]	2 (21-40%)

For each of the compounds below, note its percentage damage caused to the plant (five-point scale), ECHCG.
1. FC(F)CCCn1nc(C(F)F)cc1Cc1ncc(Cl)cn1 [Compound 1.004]
2. CC(C)(C#N)CCCn1nc(C(F)(F)F)cc1Cc1ncc(Cl)cn1 [Compound 1.019]
3. FC(F)c1cc(Cc2ncc(Cl)cn2)n(CCBr)n1 [Compound 1.025]
4. FC(F)(F)CCCn1nc(C(F)(F)F)cc1Cc1ncc(Cl)cn1 [Compound 1.006]
5. FC(F)CCn1nc(C(F)(F)Cl)cc1Cc1ncc(Cl)cn1 [Compound 1.031]
6. N#CC1(Cn2nc(C(F)(F)F)cc2Cc2ncc(Cl)cn2)CC1 [Compound 1.022]
7. CC(C)(C#N)CCCn1nc(C(F)(F)F)cc1Cc1ncc(Cl)cn1 [Compound 1.029]
8. C=CCn1nc(C(F)F)cc1Cc1ncc(Cl)cn1 [Compound 1.026]

A:
1 (0-20%)
1 (0-20%)
1 (0-20%)
3 (41-60%)
3 (41-60%)
1 (0-20%)
3 (41-60%)
1 (0-20%)
